assay: AUC (0 to t) in CD rat at 3 mg/kg, po; assay type: ADME, organism-based; design: dose 3 mg/kg, route oral; conditions: plasma
Quantity: AUC(0-t) (µM·h)
Give the quantity in µM·h, number only.

The compound listed as CC(C)OC(=O)C1=CN(C(=O)c2ccc(F)c(F)c2)CC(C)(C)c2c1[nH]c1ccccc21 [TUROFEXORATE ISOPROPYL] has a reported AUC(0-t) of 7

* * *

assay: Tmax in CD rat at 3 mg/kg, iv; format: ADME, organism-based; design: dose 3 mg/kg, route intravenous; details: in vivo
Quantity: Tmax

The compound listed as CC(C)OC(=O)C1=CN(C(=O)c2ccc(F)c(F)c2)CC(C)(C)c2c1[nH]c1ccccc21 [TUROFEXORATE ISOPROPYL] has a reported Tmax of 1.2 min
